The reported measurements were obtained from PubChem BioAssay AID686978.

Assay: qHTS for Inhibitors of human tyrosyl-DNA phosphodiesterase 1 (TDP1): qHTS in cells in absence of CPT; further: nearly all actives have a fitted effect of over 55% in size
Settings: DT40 Tdp1-/- hTDP1 cells, no CPT, ATP luminescence, 48 h
Out of some 420,000 compounds screened, about 64,000 (15%) were called active. About 27% were inconclusive and are not listed. The call rests on the fitted dose curve; in most records, active means well fitted inhibition curve with a large enough effect; inconclusive means small, poorly fitted or top-dose-only effect; inactive means flat fitted curve, though single readings scatter. Only a sample is shown.
Pick from active, inactive when you respond.

COMPOUND: C=CCn1c(COc2ccccc2C)nnc1SCC(=O)O
QUALITATIVE_LABEL: inactive
//
COMPOUND: Cc1ccc(NC(=O)COc2ccc(/C=C3/NC(=O)NC3=O)cc2)cc1
QUALITATIVE_LABEL: inactive
//
COMPOUND: CN1CCC(=O)N([C@H](CO)Cc2ccccc2)CC1
QUALITATIVE_LABEL: inactive
//
COMPOUND: COc1ccc(COCCN2CCN(S(=O)(=O)c3ccccc3)CCC2=O)cc1
QUALITATIVE_LABEL: inactive
//
COMPOUND: OC[C@@H]1CN(Cc2cccs2)C[C@H](n2cnc3c(Nc4ccccc4)ncnc32)O1
QUALITATIVE_LABEL: inactive
//
COMPOUND: Cc1ccc(C(=O)N/C(=C\c2ccco2)C(=O)NC2CCS(=O)(=O)C2)cc1 (stereo not drawn)
QUALITATIVE_LABEL: inactive
//
COMPOUND: Cc1cc(C)c(C=NNc2nc3c([nH]2)c(=O)n(C)c(=O)n3C)c(C)c1
QUALITATIVE_LABEL: inactive
//
COMPOUND: CCOC(=O)c1c(S(=O)(=O)NCC(=O)Nc2ccc(C)cc2)c(C)n(C)c1C
QUALITATIVE_LABEL: inactive
//
COMPOUND: COc1c(C(=O)N2CCCC2)ccc2ccccc12
QUALITATIVE_LABEL: inactive
//
COMPOUND: CCOC(=O)/C(N=Nc1cc(C(=O)O)cc(C(=O)O)c1)=C(\O)CCl
QUALITATIVE_LABEL: inactive

Exercise: Record request — test call for CCOc1ccccc1N=C1NC(=O)CS1
Solution: inactive

Exercise: Record request — test call for CCOc1cc(C(=O)O)ccc1OCCOc1ccccc1
Solution: inactive

Exercise: Record request — test call for OC[C@@H]1CN(C2CCCC2)C[C@H](n2cnc3c(NC4CCC4)ncnc32)O1
Solution: inactive

Exercise: Record request — test call for CS(=O)(=O)Nc1ccccc1N=C(c1ccccc1)c1ccccc1
Solution: inactive

Exercise: Record request — test call for CC1(C)CC(=O)C2=C(C1)N=C1SCCC(=O)N1C2c1ccc(C(F)(F)F)cc1 (stereo not drawn)
Solution: inactive

Exercise: Record request — test call for COc1ccccc1N=C(C)C1=C(O)COC1=O
Solution: inactive

Exercise: Record request — test call for CC(=O)C1(C)N(O)C(C)(C)C(c2cccs2)=[N+]1[O-] (stereo not drawn)
Solution: inactive

Exercise: Record request — test call for CN1CCCC1CCO[C@@](C)(c1ccccc1)c1ccc(Cl)cc1 (stereo partly drawn)
Solution: active

Exercise: Record request — test call for CN(C)S(=O)(=O)N1CCN(c2ccc([N+](=O)[O-])cc2)CC1
Solution: inactive

Exercise: Record request — test call for CC(=O)c1c(C)n(S(=O)(=O)c2ccc(Cl)cc2)c2ccc(NS(=O)(=O)c3ccc(Cl)cc3)cc12
Solution: active

Exercise: Record request — test call for Cc1ccnc(NS(=O)(=O)c2ccc(NC(=O)c3ccc(S(=O)(=O)N(C)C)cc3)cc2)n1
Solution: inactive
